- System: Liver microsome
- assay method text: Intrinsic clearance in human liver microsomes
- Assay type: ADME
metric: CLint (µL/min/g)
Answer format: numeric, µL/min/g implied, no suffix.

Given C=CC(=O)N1C[C@H](COc2nc(Nc3cnn(C)c3)nc3[nH]cc(Cl)c23)[C@@H](OC)C1 , state its recorded CLint.
18

Name the reported CLint value associated with the molecule C=CC(=O)N1CC[C@@H](COc2nc(Nc3cnn(C)c3)nc3[nH]cc(Cl)c23)C1
45

Recorded CLint of C=CC(=O)N1C[C@H](COc2nc(Nc3cnn(C)c3)nc3[nH]ccc23)[C@@H](C(F)(F)F)C1 , please.
26

Recorded CLint of C=CC(=O)N1C[C@H](COC)[C@@H](COc2nc(Nc3cnn(C)c3)nc3[nH]cc(Cl)c23)C1 , please.
23
